tgt: Cannabinoid receptor 2 (Homo sapiens, UniProt P34972)
Sequence (P34972 whole entry): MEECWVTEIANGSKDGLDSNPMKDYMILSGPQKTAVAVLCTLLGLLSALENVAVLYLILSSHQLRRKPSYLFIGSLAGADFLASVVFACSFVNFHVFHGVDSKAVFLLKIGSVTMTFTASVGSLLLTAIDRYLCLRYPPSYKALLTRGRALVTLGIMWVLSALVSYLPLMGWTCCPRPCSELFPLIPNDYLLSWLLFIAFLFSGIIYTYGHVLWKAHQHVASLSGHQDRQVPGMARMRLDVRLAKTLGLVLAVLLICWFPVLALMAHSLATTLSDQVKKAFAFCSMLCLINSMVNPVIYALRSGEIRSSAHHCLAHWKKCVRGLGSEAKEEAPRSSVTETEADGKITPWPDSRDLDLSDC
experiment summary: Displacement of [3H]CP55940 from human CB2R transfected in HEK293EBNA cell membrane incubated for 90 mins by Microbeta TriLux based luminescence analysis
Assay type: cell membranes, HEK293-EBNA
pKi: −log10 of the molar value.
Decide using pKi: a value greater than or equal to 6 is YES, a smaller one is NO.

Incoming: Kindly determine if pKi recorded for `Cn1nc(OCc2ccc3ccccc3c2)c2cc([N+](=O)[O-])ccc21` is above or exactly 6.
Outgoing: NO

Incoming: Kindly determine if pKi recorded for `Cn1nc(OCc2ccc3ccccc3c2)c2ccccc21` is above or exactly 6.
Outgoing: NO

Incoming: Kindly determine if pKi recorded for `CCCn1nc(OCc2ccc3ccccc3c2)c2cc([N+](=O)[O-])ccc21` is above or exactly 6.
Outgoing: YES

Incoming: Kindly determine if pKi recorded for `c1ccc2cc(COc3nn(CCC4CCCCC4)c4ccccc34)ccc2c1` is above or exactly 6.
Outgoing: NO

Incoming: Kindly determine if pKi recorded for `O=[N+]([O-])c1ccc2[nH]nc(OCc3ccc4ccccc4c3)c2c1` is above or exactly 6.
Outgoing: NO

Incoming: Kindly determine if pKi recorded for `Cn1nc(OCc2cccc3ccccc23)c2cc([N+](=O)[O-])ccc21` is above or exactly 6.
Outgoing: YES

Incoming: Kindly determine if pKi recorded for `CCCn1nc(OCc2ccc3ccccc3c2)c2cc(N)ccc21` is above or exactly 6.
Outgoing: NO

Incoming: Kindly determine if pKi recorded for `COc1ccc(COc2n[nH]c3ccccc23)cc1` is above or exactly 6.
Outgoing: NO

Incoming: Kindly determine if pKi recorded for `c1ccc2cc(COc3n[nH]c4ccccc34)ccc2c1` is above or exactly 6.
Outgoing: NO

Incoming: Kindly determine if pKi recorded for `c1ccc2c(COc3n[nH]c4ccccc34)cccc2c1` is above or exactly 6.
Outgoing: YES

###

tgt: Cannabinoid receptor 1 (Homo sapiens)
Sequence (P21554 whole entry): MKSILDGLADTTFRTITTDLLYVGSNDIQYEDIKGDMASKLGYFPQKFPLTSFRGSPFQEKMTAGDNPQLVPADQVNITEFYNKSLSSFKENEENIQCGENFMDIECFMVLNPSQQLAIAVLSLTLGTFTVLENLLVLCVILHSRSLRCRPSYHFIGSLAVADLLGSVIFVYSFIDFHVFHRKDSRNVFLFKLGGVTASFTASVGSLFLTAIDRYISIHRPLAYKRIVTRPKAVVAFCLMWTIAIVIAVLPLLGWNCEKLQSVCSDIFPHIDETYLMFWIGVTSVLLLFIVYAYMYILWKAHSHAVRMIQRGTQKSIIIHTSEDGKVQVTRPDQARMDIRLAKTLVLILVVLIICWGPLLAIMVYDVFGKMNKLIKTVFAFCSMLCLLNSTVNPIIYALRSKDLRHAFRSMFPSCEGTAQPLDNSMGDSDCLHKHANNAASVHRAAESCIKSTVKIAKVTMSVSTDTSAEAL
Strictly below 4 µM in Ki: Fulfilled. Otherwise: Not fulfilled.

Incoming: I'd appreciate it if you could check whether `Cn1nc(OCCc2ccccc2)c2cc([N+](=O)[O-])ccc21` has Ki smaller than 4 µM.
Outgoing: Not fulfilled

Incoming: I'd appreciate it if you could check whether `CCCn1nc(OCc2ccc3ccccc3c2)c2cc([N+](=O)[O-])ccc21` has Ki smaller than 4 µM.
Outgoing: Fulfilled

Incoming: I'd appreciate it if you could check whether `c1ccc2cc(COc3nn(CCC4CCCCC4)c4ccccc34)ccc2c1` has Ki smaller than 4 µM.
Outgoing: Fulfilled

Incoming: I'd appreciate it if you could check whether `O=[N+]([O-])c1ccc2[nH]nc(OCc3cccc4ccccc34)c2c1` has Ki smaller than 4 µM.
Outgoing: Not fulfilled

Incoming: I'd appreciate it if you could check whether `O=[N+]([O-])c1ccc2[nH]nc(OCc3ccc4ccccc4c3)c2c1` has Ki smaller than 4 µM.
Outgoing: Not fulfilled

Incoming: I'd appreciate it if you could check whether `Cn1nc(OCc2ccc3ccccc3c2)c2cc([N+](=O)[O-])ccc21` has Ki smaller than 4 µM.
Outgoing: Not fulfilled

Incoming: I'd appreciate it if you could check whether `c1ccc2cc(COc3n[nH]c4ccccc34)ccc2c1` has Ki smaller than 4 µM.
Outgoing: Not fulfilled

Incoming: I'd appreciate it if you could check whether `COc1ccc(COc2n[nH]c3ccccc23)cc1` has Ki smaller than 4 µM.
Outgoing: Not fulfilled

Incoming: I'd appreciate it if you could check whether `CCCn1nc(OCc2ccc3ccccc3c2)c2cc(N)ccc21` has Ki smaller than 4 µM.
Outgoing: Fulfilled

Incoming: I'd appreciate it if you could check whether `Cn1nc(OCc2cccc3ccccc23)c2cc([N+](=O)[O-])ccc21` has Ki smaller than 4 µM.
Outgoing: Not fulfilled

// provenance: ChEMBL document CHEMBL4725407
